- measurement.notes: logP by reversed-phase HPLC (EEC Directive 79/831 Annex V.A8)
- Format: physicochemical
- protocol.conditions: ** acidic range, pH 2.3, 0.1% aqueous phosphoric acid / acetonitrile
- Source text: [table] The calibration is effected with unbranched alkan-2-ones (having 3 to 16 carbon atoms) with known log P values (log P values determined on the basis of the retention times by linear interpolation between two successive alkanones).

{"item.smiles": "Nc1c(-c2ccc(Cl)c(Cl)c2)c(C(F)(F)F)nn1-c1nccnc1Cl", "log P": "3.99**;"}
{"item.smiles": "CCOc1nccnc1-n1nc(C(F)(F)F)c(-c2cc(Cl)cc(C(F)(F)F)c2)c1N(Cc1ccc(Cl)cc1)Cc1ccc(Cl)cc1", "log P": "7.36**"}
{"item.smiles": "COc1nccnc1-n1nc(C(F)(F)C(F)F)c(-c2cc(Cl)c(Cl)c(Cl)c2)c1N", "log P": "4.37**"}
{"item.smiles": "COc1nccnc1-n1nc(C(F)(F)F)c(-c2cc(Cl)c(Cl)c(C(F)(F)F)c2)c1N", "log P": "4.47**"}

###

- measurement.notes: logP by reversed-phase HPLC (EEC Directive 79/831 Annex V.A8)
- Assay type: physicochemical
- protocol.conditions: * LC-MS, acidic range, pH 2.7, 0.1% aqueous formic acid / acetonitrile
In this section we review reported log P values for a set of compounds.
recorded.metric: log P

{"compound": "COc1ccc(CN(Cc2ccc(OC)cc2)c2c(-c3cc(Cl)cc(C(F)(F)F)c3)c(C(F)(F)F)nn2-c2nccnc2OC)cc1 [Ex. 42]", "value.reported": "6.25*"}
{"compound": "C=C(C)CN(CC(=C)C)c1c(-c2cc(Cl)cc(C(F)(F)F)c2)c(C(F)(F)F)nn1-c1nccnc1OC [compound 104]", "value.reported": "5.22*"}
{"compound": "Nc1c(-c2cc(Cl)cc(C(F)(F)F)c2)c(C(F)(F)F)nn1-c1nccnc1-n1ccnc1 [Ex. 44]", "value.reported": "2.76*"}
{"compound": "CCOc1nccnc1-n1nc(C(F)(F)F)c(-c2cc(Cl)cc(C(F)(F)F)c2)c1N(Cc1ccc(OC)cc1)Cc1ccc(OC)cc1 [Ex. 43]", "value.reported": "6.57*"}
{"compound": "COc1nccnc1-n1nc(C(F)(F)C(F)(F)C(F)(F)F)c(-c2cc(Cl)cc(C(F)(F)F)c2)c1N [Ex. 46]", "value.reported": "4.91*"}
{"compound": "COc1nccnc1-n1nc(C(F)(F)F)c(-c2ccc(Cl)c(SC)c2Cl)c1N [Ex. 165]", "value.reported": "4.14*"}
{"compound": "COc1nccnc1-n1nc(C(F)(F)F)c(-c2ccc(Cl)c(C(F)(F)F)c2)c1N [Ex. 18]", "value.reported": "3.94*"}
{"compound": "CCOc1nccnc1-n1nc(C(F)(F)F)c(-c2cc(Cl)cc(C(F)(F)F)c2)c1NCc1ccccc1 [Ex. 35]", "value.reported": "5.62*"}
{"compound": "COc1nccnc1-n1nc(C(F)(F)F)c(-c2ccc3c(c2)CCC(C)(C)O3)c1N [Ex. 145]", "value.reported": "3.68*"}
{"compound": "COc1nccnc1-n1nc(C(F)(F)F)c(-c2cc(Cl)cc(Cl)c2)c1N [Ex. 6]", "value.reported": "3.95*"}
{"compound": "Cc1nccnc1-n1nc(C(F)(F)F)c(-c2cc(Cl)cc(C(F)(F)F)c2)c1N [Ex. 23]", "value.reported": "4.32*"}
{"compound": "COc1nccnc1-n1nc(C(C)(C)F)c(-c2cc(Cl)cc(Cl)c2)c1N [Ex. 168]", "value.reported": "3.77*"}
{"compound": "Nc1c(-c2cc(Cl)cc(C(F)(F)F)c2)c(C(F)(F)F)nn1-c1nccnc1-n1cccn1 [Ex. 31]", "value.reported": "3.94*"}
{"compound": "Nc1c(-c2ccc(Cl)cc2)c(C(F)(F)F)nn1-c1nccnc1Cl [Ex. 7]", "value.reported": "3.59*"}
{"compound": "C=C(C)c1nn(-c2nccnc2OC)c(N)c1-c1cc(Cl)cc(Cl)c1 [Ex. 167]", "value.reported": "3.79*"}
{"compound": "COc1nccnc1-n1nc(C(F)(F)F)c(-c2cc(Cl)cc(C(F)(F)F)c2)c1NCc1ccccc1 [Ex. 33]", "value.reported": "5.28*"}
{"compound": "CCOc1cc(-c2c(C(F)(F)F)nn(-c3nccnc3OC)c2N)ccc1OCC(F)(F)F [Ex. 127]", "value.reported": "3.68*"}

###

- measurement.notes: logP by reversed-phase HPLC (EEC Directive 79/831 Annex V.A8)
- Format: physicochemical
- protocol.conditions: * LC-MS, acidic range, pH 2.7, 0.1% aqueous formic acid / acetonitrile
- From the text: [table] The calibration is effected with unbranched alkan-2-ones (having 3 to 16 carbon atoms) with known log P values (log P values determined on the basis of the retention times by linear interpolation between two successive alkanones).

{"item.smiles": "CCOc1cc(-c2c(C(F)(F)F)nn(-c3nccnc3OC)c2N)cc(Cl)c1OCC(F)(F)F", "log P": "4.21*"}
{"item.smiles": "COc1nccnc1-n1nc(C(F)(F)F)c(-c2cc(Cl)cc(C(F)(F)F)c2)c1N", "log P": "4.07*"}
{"item.smiles": "Nc1c(-c2cc(Cl)cc(C(F)(F)F)c2)c(C(F)(F)F)nn1-c1nccnc1Br", "log P": "4.27*"}
{"item.smiles": "COc1nccnc1-n1nc(C(F)(F)F)c(-c2cc(Cl)c3c(c2)COCO3)c1N", "log P": "3.02*"}
{"item.smiles": "N#Cc1nccnc1-n1nc(C(F)(F)F)c(-c2cc(Cl)cc(C(F)(F)F)c2)c1N", "log P": "3.93*"}
{"item.smiles": "CS(=O)(=O)c1nccnc1-n1nc(C(F)(F)F)c(-c2cc(Cl)cc(C(F)(F)F)c2)c1N", "log P": "3.54*"}
{"item.smiles": "COc1nccnc1-n1nc(C(C)(F)F)c(-c2ccc(Cl)c(C(F)(F)F)c2)c1N", "log P": "3.74*"}
{"item.smiles": "Nc1c(-c2cc(Cl)cc(C(F)(F)F)c2)c(C(F)(F)F)nn1-c1nccnc1-n1cc(F)cn1", "log P": "4.24*"}

###

- measurement.notes: logP by reversed-phase HPLC (EEC Directive 79/831 Annex V.A8)
- Format: physicochemical
- protocol.conditions: * LC-MS, acidic range, pH 2.7, 0.1% aqueous formic acid / acetonitrile
In this section we review reported log P values for a set of compounds.

{"compound": "COc1nccnc1-n1nc(C(F)(F)F)c(-c2cc(Cl)c(N(C)C)c(C(F)(F)F)c2)c1N [Ex. 123]", "log P": "4.72*"}
{"compound": "COc1nccnc1-n1nc(C(F)(F)F)c(-c2cc(Br)c3c(c2)OCCCO3)c1N [Ex. 131]", "log P": "3.32*"}
{"compound": "COc1nccnc1-n1nc(C(F)(F)F)c(-c2cc(F)c(Cl)cc2Cl)c1N [Ex. 166]", "log P": "3.66*"}
{"compound": "CN(C)c1nccnc1-n1nc(C(F)(F)F)c(-c2cc(Cl)cc(C(F)(F)F)c2)c1N [Ex. 25]", "log P": "4.28*"}
{"compound": "COc1nccnc1-n1nc(C(F)(F)F)c(-c2cc(Cl)c(Cl)c(SCC(F)(F)F)c2)c1N [Ex. 180]", "log P": "4.43*"}
{"compound": "Cc1cnc(C)c(-n2nc(C(F)(F)F)c(-c3cc(Cl)cc(C(F)(F)F)c3)c2N)n1 [Ex. 24]", "log P": "4.56*"}
{"compound": "COc1cc(-c2c(C(F)(F)F)nn(-c3nccnc3OC)c2N)cc(C(F)(F)F)c1OC(C)C [Ex. 126]", "log P": "4.28*"}
{"compound": "Nc1c(-c2cc(Cl)cc(C(F)(F)F)c2)c(C(F)(F)F)nn1-c1nccnc1C(F)(F)F [Ex. 130]", "log P": "4.57*"}

###

- measurement.notes: logP by reversed-phase HPLC (EEC Directive 79/831 Annex V.A8)
- Type: physicochemical
- protocol.conditions: * LC-MS, acidic range, pH 2.7, 0.1% aqueous formic acid / acetonitrile

{"compound": "COc1nccnc1-n1nc(C(F)(F)F)c(-c2cc3c(c(C(F)(F)F)c2)OCCO3)c1N", "log P": "3.27*"}
{"compound": "COc1nccnc1-n1nc(C(F)(F)F)c(-c2cc(Cl)cc(C(F)(F)F)c2)c1NCc1ccc(Cl)cc1", "log P": "5.51*"}
{"compound": "COc1nccnc1-n1nc(C(F)(F)F)c(-c2cc(Cl)c(N(C)C)c(Cl)c2)c1N", "log P": "4.46*"}
{"compound": "CCOc1nccnc1-n1nc(C(F)(F)F)c(-c2cc(Cl)cc(C(F)(F)F)c2)c1NCc1ccc(OC)cc1", "log P": "5.47*"}
{"compound": "COc1nccnc1-n1nc(C(F)(F)F)c(-c2cc(Cl)c3c(c2)OCCCO3)c1N", "log P": "3.25*"}
{"compound": "C=Cc1nn(-c2nccnc2OC)c(N)c1-c1cc(Cl)cc(C(F)(F)F)c1", "log P": "3.63*"}
{"compound": "COc1nccnc1-n1nc(C(F)(F)F)c(-c2cc(Cl)c(Cl)c([S+]([O-])CC(F)(F)F)c2)c1N (centres unmarked)", "log P": "3.69*"}
{"compound": "COc1nccnc1-n1nc(C(F)(F)C(F)(F)OC)c(-c2cc(Cl)cc(C(F)(F)F)c2)c1N", "log P": "3.98*"}
{"compound": "COc1nccnc1-n1nc(C(F)(F)F)c(-c2cc(SCC(F)(F)F)c(Cl)cc2Cl)c1N", "log P": "4.14*"}
{"compound": "COc1ccc(CNc2c(-c3cc(Cl)cc(C(F)(F)F)c3)c(C(F)(F)F)nn2-c2nccnc2OC)cc1", "log P": "5.13*"}
{"compound": "COc1cc(-c2c(C(F)(F)F)nn(-c3nccnc3OC)c2N)cc(C(F)(F)F)c1OC", "log P": "3.56*"}
{"compound": "COc1nccnc1-n1nc(C(F)(F)F)c(-c2cc(Cl)cc(C(F)(F)F)c2)c1N(Cc1ccc(Cl)cc1)Cc1ccc(Cl)cc1", "log P": "7.11*"}
{"compound": "COc1nccnc1-n1nc(C(F)(F)Cl)c(-c2cc(Cl)cc(C(F)(F)F)c2)c1N", "log P": "4.24*"}
{"compound": "COc1nccnc1-n1nc(C(F)(F)C(F)F)c(-c2cc(Cl)c3c(c2)OCO3)c1N", "log P": "3.18*"}
{"compound": "COc1nccnc1-n1nc(C(F)(F)F)c(-c2cc(C(F)(F)F)cc(Cl)n2)c1N", "log P": "4.54*"}
{"compound": "COc1cc(-c2c(C(F)(F)F)nn(-c3nccnc3OC)c2N)cc(Cl)c1OCC(F)(F)F", "log P": "3.88*"}
{"compound": "Nc1c(-c2cc(Cl)cc(Cl)c2)c(C(F)(F)F)nn1-c1nccnc1Cl", "log P": "4.16*"}
